Values compiled from PubChem BioAssay (NCATS).

Biological target: Nuclear receptor subfamily 1 group I member 2 (Homo sapiens) (UniProt O75469)
Sequence (O75469 whole entry, looked up): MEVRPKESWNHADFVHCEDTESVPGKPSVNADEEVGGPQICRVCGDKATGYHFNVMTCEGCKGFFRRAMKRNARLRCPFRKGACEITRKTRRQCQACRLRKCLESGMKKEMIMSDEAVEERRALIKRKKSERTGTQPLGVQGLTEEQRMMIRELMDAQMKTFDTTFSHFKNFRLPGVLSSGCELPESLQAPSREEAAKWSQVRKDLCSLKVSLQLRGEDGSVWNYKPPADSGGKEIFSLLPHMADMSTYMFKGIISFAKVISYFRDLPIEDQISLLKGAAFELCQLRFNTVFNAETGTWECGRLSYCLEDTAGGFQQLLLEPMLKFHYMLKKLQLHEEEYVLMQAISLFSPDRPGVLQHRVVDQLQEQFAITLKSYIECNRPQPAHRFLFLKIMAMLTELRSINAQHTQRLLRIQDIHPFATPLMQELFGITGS
Experiment: Dual reporter qHTS for antagonist of Pregnane X Receptor (hPXR) against the NCATS DSHEA and TCM libraries: Luminescence Readout (AID 1920060);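 further: HepG2 cells carrying hPXR luciferase reporter stimulated with rifampicin at 2 µM; 0% is about no effect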
Settings: hPXR dual reporter cells, luciferase luminescence, antagonist mode; series mostly up to 40 µM
From the text: Assay Development and Screening Technology Laboratory (ADST) National Center for Advancing Translational Sciences (NCATS), Rockville, MD National Institute of Health (NIH), Bethesda, Maryland Dietary Supplements and Natural Products have minor oversight of their safety and efficacy. […] Overall, we highlight four significant bioactivity profiles (measured by p-values) as examples of this prediction. […] 8; Read; Fluorescence; ViewLux plate reader. […] 11; Read; Luminescence; ViewLux plate reader. […]
Records with an inconclusive call do not appear. Activity calls are given as the source filed them. The call rests on the fitted dose curve; in most records, active means well fitted curve in the direction sought with a large enough effect; inconclusive means small, poorly fitted or top-dose-only effect, or another doubt; inactive means no such curve, though single readings can be large or run the other way.
METRIC: activity change, negative = inhibition

CC/C=C\C/C=C\C/C=C\CCCCCCCC(=O)O ... inactive
C=C1CC[C@H](O)C/C1=C\C=C1/CCC[C@]2(C)[C@@H]([C@H](C)CCCC(C)C)CC[C@@H]12 ... inactive
CCCCC/C=C\C/C=C\C/C=C\CCCCC(=O)O ... -11% [at 5 µM] (inactive)

---

assay: qHTS Assay for Identifying Gametocytocidal Compounds (AID 743244);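 further: on the % scale 0 is the no-effect control and ±100 the full control effect; actives lower the fluorescent signal which means gametocytes are killed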; settings: P. falciparum 3D7 stage III-V gametocytes, alamarBlue, 72 h; active compounds read low
Results filed as inconclusive are left out.
max response: recorded values
Numeric answer only, unit % assumed.

Guide cases for max response, answers given:
COC(=O)[C@H]1[C@H]2C[C@@H]3c4[nH]c5cc(OC)ccc5c4CCN3C[C@H]2C[C@H](OC)[C@@H]1OC ... 15
O=c1n(CC2CO2)c(=O)n(CC2CO2)c(=O)n1CC1CO1 (centres undefined) ... 6.57
CC(C)(C)NCC(O)CSc1nc(-c2ccc(C(N)=O)s2)cs1 (centres undefined) ... 20.6
O=C1CC[C@@H](C(=O)N[C@H]2C[C@@H]2c2ccccc2)N1 ... -4.02

## Input Fill blank: measured max response of the compound CC(=O)N=c1sc(S(N)(=O)=O)nn1C is ____.
## Output 3.69

## Input Fill blank: measured max response of the compound CN(CCO)CC(O)Cn1cnc2c1c(=O)n(C)c(=O)n2C (centres undefined) (tested in a mixture with another compound) is ____.
## Output 2.62

## Input Fill blank: measured max response of the compound CCCCC(O)c1ccccc1 (centres undefined) is ____.
## Output -2.26

## Input Fill blank: measured max response of the compound CCc1cn([C@H]2C[C@H](O)[C@@H](CO)O2)c(=O)[nH]c1=O is ____.
## Output 16.3

## Input Fill blank: measured max response of the compound CO[C@H]1C=CO[C@@]2(C)Oc3c(C)c(O)c4c(O)c(cc(O)c4c3C2=O)NC(=O)/C(C)=C\C=C/[C@H](C)[C@H](O)[C@@H](C)[C@@H](O)[C@@H](C)[C@H](OC(C)=O)[C@@H]1C is ____.
## Output -6.86

---

Potency: recorded values
experiment: Drug repurposing screens with cells derived from glioblastoma tumor samples (AID 1345199); conditions: GBM patient neurospheres viability, ATP luminescence, 48 h; tumour line D; further: potency means the concentration at half of the fitted maximal effect; nearly all actives have a fitted effect of over 40% in size
Inconclusive results are not listed. Calls of active or inactive are those of the source. The call rests on the fitted dose curve; in most records, active means well fitted inhibition curve with a large enough effect; inconclusive means small, poorly fitted or top-dose-only effect; inactive means flat fitted curve, though single readings scatter.

Guide cases for Potency, answers given:
O=C(OC[C@H]1O[C@@H](OC(=O)c2cc(O)c(O)c(OC(=O)c3cc(O)c(O)c(O)c3)c2)[C@H](OC(=O)c2cc(O)c(O)c(OC(=O)c3cc(O)c(O)c(O)c3)c2)[C@@H](OC(=O)c2cc(O)c(O)c(OC(=O)c3cc(O)c(O)c(O)c3)c2)[C@@H]1OC(=O)c1cc(O)c(O)c(OC(=O)c2cc(O)c(O)c(O)c2)c1)c1cc(O)c(O)c(OC(=O)c2cc(O)c(O)c(O)c2)c1 ... 17.8 µM (active)
CN(C)CCOc1ccc(/C(=C(/CCCl)c2ccccc2)c2ccccc2)cc1 ... 12.6 µM (active)

## Input Fill blank: measured Potency of the compound COc1ccc2c(c1)N(C[C@H](C)CN(C)C)c1ccccc1S2 is ____.
## Output 12.6 µM (active)

---

assay: Cell Viability - LYMP2-005 (AID 967); conditions: LYMP2-005 lymphoblastoid cell viability; series mostly up to 92.2 µM;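 further: cells exposed to compound for 24 h at 37 °C; plate controls were DMSO only for no effect and 92 µM tetraoctylammonium bromide control for full effect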
Inconclusive results are not listed. Active and inactive are the calls of the source. The call rests on the fitted dose curve; in most records, active means well fitted cell-killing curve with a large enough effect; inconclusive means small, poorly fitted or top-dose-only effect, or effect the other way; inactive means no such curve, though single readings can be large or run the other way.
Thanks in advance; please answer with one of these: active, inactive

## Input Returns: the outcome recorded for NCCN in this assay.
## Output inactive

## Input Returns: the outcome recorded for c1ccc2ccccc2c1 in this assay.
## Output inactive

## Input Returns: the outcome recorded for OCC(O)CO in this assay.
## Output inactive

## Input Returns: the outcome recorded for CCOC(C)OCC in this assay.
## Output inactive

## Input Returns: the outcome recorded for [O-][N+](=Nc1ccccc1)c1ccccc1 in this assay.
## Output inactive

## Input Returns: the outcome recorded for Nc1ncnc2c1ncn2[C@H]1CC[C@@H](CO)O1 in this assay.
## Output inactive

## Input Returns: the outcome recorded for CCCCO in this assay.
## Output inactive

## Input Returns: the outcome recorded for Oc1cccc(O)c1O in this assay.
## Output inactive

---

system: AS120; assay: qHTS profiling for inhibitors of Plasmodium falciparum proliferation (AID 504749); further: nearly all actives have a fitted effect of over 60% in size; conditions: P. falciparum in erythrocytes, SYBR Green DNA, 72 h; series mostly up to 28.7 µM
Records with an inconclusive call do not appear. Calls of active or inactive are those of the source. Calls come from the whole dose curve; as a rule, active = well fitted inhibition curve with a large enough effect; inconclusive = small, poorly fitted or top-dose-only effect; inactive = flat fitted curve, though single readings scatter.
Thanks in advance; please answer with one of these: active, inactive

Cn1cc(NC(=O)c2cc(NC(=O)c3cc(NC=O)cn3C)cn2C)cc1C(=O)NCCC(=N)N ... active
CC(C)CCC[C@@H](C)[C@H]1CC[C@H]2[C@@H]3CC[C@@H]4C[C@H](O)CC[C@]4(C)[C@H]3CC[C@]12C ... inactive
CCCOc1cc(N)ccc1C(=O)OCCN(CC)CC ... inactive
OCC(O)CO ... inactive
CS(=O)(=O)OCC(O)C(O)COS(C)(=O)=O (stereo unspecified) ... inactive

Pending compound:
## Input Returns: the outcome recorded for CC(C)(Oc1ccc(C2CCCc3ccccc32)cc1)C(=O)O (stereo unspecified) in this assay.
## Output inactive

---

experiment: qHTS Assay for Identifying Gametocytocidal Compounds (AID 743244);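 further: on the % scale 0 is the no-effect control and ±100 the full control effect; actives lower the fluorescent signal which means gametocytes are killed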; settings: P. falciparum 3D7 stage III-V gametocytes, alamarBlue, 72 h; active compounds read low
Records with an inconclusive call do not appear. Calls of active or inactive are those of the source. Calls come from the whole dose curve; as a rule, active = well fitted curve in the direction sought with a large enough effect; inconclusive = small, poorly fitted or top-dose-only effect, or another doubt; inactive = no such curve, though single readings can be large or run the other way.
max response: recorded values

Guide cases for max response, answers given:
OCl ... 13.5% (inactive)
NCC[C@H](O)C(=O)N[C@@H]1C[C@H](N)[C@@H](O[C@H]2O[C@H](CN)[C@@H](O)[C@H](O)[C@H]2O)[C@H](O)[C@H]1O[C@H]1O[C@H](CO)[C@@H](O)[C@H](N)[C@H]1O ... -2.69% (inactive)
CC(C)[C@@H]1CC[C@@H](C)C[C@H]1O ... 20.4% (inactive)
OCC1(CO)COC(C(Cl)(Cl)Cl)OC1 ... 24.4% (inactive)
[O]=[Bi][O]C(=O)[O][Bi]=[O] ... -0.353% (inactive)
C=C[C@]1(C)C[C@@H](OC(=O)CSCCN(CC)CC)[C@]2(C)[C@H](C)CC[C@]3(CCC(=O)[C@H]32)[C@@H](C)[C@@H]1O ... -4.45% (inactive)
CCN1C(=O)NC(c2ccccc2)C1=O (stereo not given) ... 13.2% (inactive)
COC(=O)CC[C@H](N)C(=O)O ... -4.69% (inactive)
O=C(O)c1cc(O)c2c(c1)[C@H]([C@H]1c3cc(C(=O)O)cc(O)c3C(=O)c3c(O[C@@H]4O[C@H](CO)[C@@H](O)[C@H](O)[C@H]4O)cccc31)c1cccc(O[C@@H]3O[C@H](CO)[C@@H](O)[C@H](O)[C@H]3O)c1C2=O ... -8.85% (inactive)
C[S+](C)CCC(N)C(=O)O (stereo not given) ... 3.96% (inactive)

## Input Fill blank: measured max response of the compound O=C(O)COc1ccccc1/C=N/NC(=O)c1ccncc1 is ____.
## Output 1.32% (inactive)

## Input Fill blank: measured max response of the compound CCC(=O)OC(OP(=O)(CCCCc1ccccc1)CC(=O)N1C[C@H](C2CCCCC2)C[C@H]1C(=O)O)C(C)C (stereo not given in full) is ____.
## Output 15.3% (inactive)

## Input Fill blank: measured max response of the compound O=C(O)[C@@H]1C[C@H](CP(=O)(O)O)CCN1 is ____.
## Output 11.7% (inactive)

## Input Fill blank: measured max response of the compound CCN(CC)CCOc1ccccc1OC is ____.
## Output -0.561% (inactive)

## Input Fill blank: measured max response of the compound CC(C)c1nc(N(C)S(C)(=O)=O)nc(-c2ccc(F)cc2)c1/C=C/C(O)CC(O)CC(=O)O (stereo not given) is ____.
## Output 12% (inactive)

## Input Fill blank: measured max response of the compound CCCCCCCCCCCCCCCCOCCOCCOCCOCCOCCOCCOCCOCCOCCOCCOCCOCCOCCOCCOCCOCCOCCOCCOCCOCCO is ____.
## Output -3.08% (inactive)

## Input Fill blank: measured max response of the compound CC(C)CN(C[C@@H](O)[C@H](Cc1ccccc1)NC(=O)O[C@@H]1CCOC1)S(=O)(=O)c1ccc(N)cc1 is ____.
## Output 12.1% (inactive)

## Input Fill blank: measured max response of the compound CO/N=C(\C(=O)N[C@@H]1C(=O)N2C(C(=O)[O-])=C(C[n+]3ccc(N)n3CCO)CS[C@H]12)c1csc(N)n1 is ____.
## Output -6.21% (inactive)

## Input Fill blank: measured max response of the compound CC(C)(Oc1ccc(C2CCCc3ccccc32)cc1)C(=O)O (stereo not given) is ____.
## Output -6.04% (inactive)

## Input Fill blank: measured max response of the compound CC(=O)Oc1cccc(C(=O)O)c1OC(C)=O is ____.
## Output 10.1% (inactive)
